The reported measurements were obtained from the supplement of paper PMC6755084.

B1: F1*; the commonest letter at each place (parent)
chain: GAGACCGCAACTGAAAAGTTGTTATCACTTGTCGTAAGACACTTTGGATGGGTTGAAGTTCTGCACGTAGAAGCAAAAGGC

Variants of: B1
Experiment: fraction ligated after 30 min (ligated reads / total reads); higher = more ligase activity
Conditions: with F1*sub RNA substrate (template-directed ligation), 42 °C
Classification field: enter 1 (yes) for fraction ligated values not below 0.8, 0 (no) for values below it.

> print(dat)
         mutant.id  label.value
 1  G55T A56T A57C       0 (no)
 2       A39G T44C      1 (yes)
 3       C33T T44A      1 (yes)
 4            T23A      1 (yes)
 5       C42T G55A      1 (yes)
 6       A24C T35C       0 (no)
 7       T35C A48C       0 (no)
 8       T45G G47T       0 (no)
 9       T49C A57G       0 (no)
10       A27G A41T      1 (yes)
11       T30A T49C       0 (no)
12       A41C A56T       0 (no)
13       A24C G34C       0 (no)
14       A41C G50C       0 (no)
15       G38T C42A      1 (yes)
16       T32C G47A       0 (no)
17       C40G T44A      1 (yes)
18       T25A A36T       0 (no)
19       G31C A36C       0 (no)
20       T29G T30C      1 (yes)
21       T44A G50T       0 (no)
22       C40G T49C       0 (no)
23            A36C      1 (yes)
24       T32A A56C       0 (no)
25       G47A A57G       0 (no)
26       T25G G34C       0 (no)
27       C40T G50A       0 (no)
28       C42G G55A      1 (yes)
29       T43A A48C       0 (no)
30       G34A T35G      1 (yes)
31       A41G T49G       0 (no)
